tested on: Felis catus; assay: Control blood pressure in normotensive anesthetized cat at dose 10 mg/Kg iv
measurement label: control BP (mmHg)
Numbers only, in mmHg.

Example compounds with recorded control BP:
{"columns": ["compound", "target of assay", "value unit", "control BP"],
 "data": [
  ["CCCCCOC(=O)C(CN)c1c[nH]c2ccc(OC)cc12.Cl (configuration not stated)", "Felis catus", "mmHg", 148],
  ["COc1ccc2[nH]cc(C(CNC(C)=O)C(=O)O)c2c1 (configuration not stated)", "Felis catus", "mmHg", 154],
  ["COC(=O)C(CN)c1c[nH]c2ccc(O)cc12.Cl (configuration not stated)", "Felis catus", "mmHg", 135],
  ["COC(=O)CC(CN)c1c[nH]c2ccccc12 (configuration not stated)", "Felis catus", "mmHg", 184],
  ["CCOC(=O)CC(c1nnn[nH]1)c1c[nH]c2cccc(Cl)c12 (configuration not stated)", "Felis catus", "mmHg", 135],
  ["CCOC(=O)CC(CNC(C)=O)c1c[nH]c2ccccc12 (configuration not stated)", "Felis catus", "mmHg", 169],
  ["COc1ccc2[nH]cc(C(CN)c3nnn[nH]3)c2c1 (configuration not stated)", "Felis catus", "mmHg", 167],
  ["COc1ccc2[nH]cc(C(CN)C(=O)OC(C)C)c2c1.Cl (configuration not stated)", "Felis catus", "mmHg", 181]
]}

Provide control BP for all items below, preserving their order.
1. COC(=O)CC(CN)c1c[nH]c2ccc(OC)cc12 (configuration not stated)
2. COC(=O)C(CN)c1cn(C)c2ccc(OC)cc12.Cl (configuration not stated)
3. COC(=O)C(CN(C)C)c1c[nH]c2ccc(OC)cc12.O=C(O)C(=O)O (configuration not stated)
4. N[C@@H](Cc1c[nH]c2ccccc12)C(=O)O [TRYPTOPHAN]

166
165
167
165
